system: Mutant CD33-GFP M17 (F21Y) on 293FT cells (UniProt P20138)
Sequence (P20138 18-364 F21Y): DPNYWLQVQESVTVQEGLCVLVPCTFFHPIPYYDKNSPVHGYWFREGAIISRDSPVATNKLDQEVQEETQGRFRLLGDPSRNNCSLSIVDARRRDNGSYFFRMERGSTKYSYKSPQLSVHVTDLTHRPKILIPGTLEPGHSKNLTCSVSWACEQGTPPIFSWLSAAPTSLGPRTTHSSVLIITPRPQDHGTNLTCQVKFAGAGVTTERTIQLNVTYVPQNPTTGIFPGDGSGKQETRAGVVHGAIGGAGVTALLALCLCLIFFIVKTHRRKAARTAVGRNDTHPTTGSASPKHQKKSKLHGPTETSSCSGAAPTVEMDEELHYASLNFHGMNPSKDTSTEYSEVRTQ
testProtocol: FACS, mutant CD33-GFP on 293FT cells
readoutKind: FACS binding data
Reply: number alone, nothing else.

Use these answered entries as a reference point.
binder	FACS binding data
sdCD33_7 (VHH, sdAb from a naive llama phage library; also called 420; sdAb420) VHH: EVQLVESGGGLVQPGGSLRLSCVASGFTFKDYGMTWVRQAPGKALEWVSDINSAGDGIYYSDSVKGRFTISRDDSKGTLYLQMNSLTPEDTAIYYCAAERQRAGDVKRSLAPITAHIWGQGTQVTVSS	99.1
sdCD33_6 (VHH, sdAb from a naive llama phage library; also called 416; sdAb416) VHH: EVQLVESGGGLVQPRGSLRLSCVVSGSMSSIYSMSWYRQPPGKQRELVAHITTTGTTNYIDSVKGRFTISIDNDINVIYLQMNTLKPEDTAVYYCNAGLKAGPGPRLDYWGLGTQVTVSS	99.1
sdCD33_9 (VHH, sdAb from a naive llama phage library; also called 426; sdAb426) VHH: QVKLEESGGGLVRAGGSLRLSCAASGGTFSTYAMAWFRQAPGKEREFVAAITWGGGSTYYEDSVKGRFTISRDNAKNTGVLQMNNLDVDDTAVYYCYAFGRSRAGDANGDYWGQGTQVTVSS	99.1

Attention now shifts to the item below.
Consider the binder shown here: sdCD33_3 (VHH) VHH: DVQLVESGGGLVQPGGSLRLSCSVSGNIDRFYAMGWYRQAPGKQRELVAQLTNNEITTYGDSVEGQFSISGDFDANTVYLQMDSLKPEDTAVYYCHAHVTTTRWSQDYYWGQGTRVTVSS What is its recorded FACS binding data?
98.2
